Molecular target: TDP-43 (Homo sapiens, UniProt Q13148 1-414)
Sequence (Q13148 whole entry): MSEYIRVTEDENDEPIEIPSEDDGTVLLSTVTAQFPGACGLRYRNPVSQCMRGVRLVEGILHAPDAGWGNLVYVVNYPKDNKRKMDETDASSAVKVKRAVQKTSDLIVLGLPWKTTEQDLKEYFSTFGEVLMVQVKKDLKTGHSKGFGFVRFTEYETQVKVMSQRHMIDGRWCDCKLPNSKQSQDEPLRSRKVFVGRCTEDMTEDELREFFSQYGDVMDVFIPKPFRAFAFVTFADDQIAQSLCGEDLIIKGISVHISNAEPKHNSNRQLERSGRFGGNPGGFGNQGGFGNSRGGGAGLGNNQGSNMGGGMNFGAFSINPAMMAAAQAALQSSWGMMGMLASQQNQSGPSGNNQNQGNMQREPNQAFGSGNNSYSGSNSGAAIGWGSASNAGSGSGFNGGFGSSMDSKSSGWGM
Assay: RNA Bind-n-Seq with designed 260-mer pool; 25 mM Tris-HCl, 150 mM KCl, 3 mM MgCl2, BSA (printed 500 mg/mL), 20 units/mL SUPERase IN; pH not stated; 500 nM RNA pool, 1 h, 4 C; TDP-43 5, 50, 500 nM; high values mean tight binding
Conditions: protein: recombinant; tags: SBP (GST cleaved off with PreScission; pGEX-GST-SBP)
In all, about 9,900 sequences were measured (“r (bound/input frequency ratio)”: median about 0.7, highest 2% from about 6.5 on). What follows is part of a selection rich in the highest values, with near analogues and random picks from the rest.
Outcome measure: binding signal

[in] Give binding signal for the following binder: ENSMUSG00000029028.11|Lrrc47 (ssRNA) RNA: GGGAGUUCUACAGUCCGACGAUCGCUUCGAUAUCCGCAUGCUACCUGAUCACCCUCCCUCCCCACGUGACUGUGGUCCGCUGACAGGCUCCUGUAGGUGUGGGUGUGCUGUAGGUGUCUGUGUGGGUGUGGGUGUGCUGUAGGUGUCUGUGUGGGUGUGGGUGUGCUAUAGGUAUCUGUGGGUGUGCUGUAGGUGUCUGUGUGGGUGUGCUGUAGGUGUCUGUGUAGGUGUGGGUGUGCUGUAGGUGUCUGUGUGGGUGUGCUAGGUGUCUGUAUAGGUGUGGGUGUGCUGUAGAUGUCUGUGCUCUUGCGGUCGCACUAGUGUGGAAUUCUCGGGUGUCAAGG
[out] 7.32 R (bound/input frequency ratio)
